test: Metabolic stability in ICR mouse liver microsome assessed as clearance; format: ADME; conditions: microsomes
Endpoint label: CLH
Please provide the amount together with its unit, number first.

// CLH lookup, compound = CN1c2ccc(F)cc2C(=O)N2CCc3c([nH]c4ccc(OCc5ccc(/C=C/C(=O)NO)cc5)cc34)C21 (stereo unspecified) , result: 173 mL/min/kg

---

target: DNA topoisomerase 1 (Homo sapiens) (UniProt P11387); assay: Inhibition of recombinant Top1 (unknown origin) assessed as inhibition of relaxation of supercoiled pBR322 plasmid DNA at 100 uM incubated for 15 mins by ethidium bromide staining based agarose gel electrophoresis analysis
Sequence (P11387 whole entry): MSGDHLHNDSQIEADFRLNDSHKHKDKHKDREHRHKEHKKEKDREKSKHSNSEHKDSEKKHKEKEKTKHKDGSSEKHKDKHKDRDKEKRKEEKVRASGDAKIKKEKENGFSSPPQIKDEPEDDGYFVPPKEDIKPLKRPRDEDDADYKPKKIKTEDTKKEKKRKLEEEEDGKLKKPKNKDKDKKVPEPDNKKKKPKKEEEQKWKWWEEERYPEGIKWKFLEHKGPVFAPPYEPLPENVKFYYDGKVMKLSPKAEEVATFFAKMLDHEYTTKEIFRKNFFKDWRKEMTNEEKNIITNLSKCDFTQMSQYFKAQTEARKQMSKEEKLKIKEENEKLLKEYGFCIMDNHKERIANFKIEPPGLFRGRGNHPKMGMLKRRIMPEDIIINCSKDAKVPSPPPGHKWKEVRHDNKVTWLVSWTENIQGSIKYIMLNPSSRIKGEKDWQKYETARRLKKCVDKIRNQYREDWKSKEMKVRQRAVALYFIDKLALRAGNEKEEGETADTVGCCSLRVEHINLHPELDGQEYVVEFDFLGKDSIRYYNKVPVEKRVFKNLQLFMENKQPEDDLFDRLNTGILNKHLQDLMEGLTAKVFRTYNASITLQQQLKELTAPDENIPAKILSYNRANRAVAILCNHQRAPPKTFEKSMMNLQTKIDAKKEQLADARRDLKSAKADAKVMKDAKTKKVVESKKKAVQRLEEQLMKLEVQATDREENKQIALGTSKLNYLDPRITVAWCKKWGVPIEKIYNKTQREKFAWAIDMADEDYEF
Active and inactive are the calls of the source. No cut-off for these calls is given here.
# output must be one of yes (1) (active), no (0) (inactive)

{"Compound": "CN1c2ccc(F)cc2C(=O)N2CCc3c([nH]c4ccc(OCc5ccc(/C=C/C(=O)NO)cc5)cc34)C21 (stereo not drawn)", "Target under test": "DNA topoisomerase 1 (Homo sapiens) (UniProt P11387)", "Class label": "yes (1)"}
{"Compound": "CN1c2ccc(F)cc2C(=O)N2CCc3c([nH]c4ccc(OCCCCCCC(=O)Nc5ccccc5N)cc34)C21 (stereo not drawn)", "Target under test": "DNA topoisomerase 1 (Homo sapiens) (UniProt P11387)", "Class label": "yes (1)"}
{"Compound": "CN1c2ccc(F)cc2C(=O)N2CCc3c([nH]c4ccc(OCCCCCCC(=O)NO)cc34)C21 (stereo not drawn)", "Target under test": "DNA topoisomerase 1 (Homo sapiens) (UniProt P11387)", "Class label": "yes (1)"}
{"Compound": "CN1c2ccc(F)cc2C(=O)N2CCc3c([nH]c4ccc(OCCCC(=O)NO)cc34)C21 (stereo not drawn)", "Target under test": "DNA topoisomerase 1 (Homo sapiens) (UniProt P11387)", "Class label": "yes (1)"}
{"Compound": "CN1c2ccc(F)cc2C(=O)N2CCc3c([nH]c4ccc(OCc5ccc(C(=O)Nc6ccccc6N)cc5)cc34)C21 (stereo not drawn)", "Target under test": "DNA topoisomerase 1 (Homo sapiens) (UniProt P11387)", "Class label": "yes (1)"}

INPUT: State the result this test recorded for CN1c2ccc(F)cc2C(=O)N2CCc3c([nH]c4ccc(OCc5ccccc5C(=O)Nc5ccccc5N)cc34)C21 (stereo not drawn) .
OUTPUT: no (0)

INPUT: State the result this test recorded for CN1c2ccc(F)cc2C(=O)N2CCc3c([nH]c4ccc(OCc5cccc(C(=O)Nc6ccccc6N)c5)cc34)C21 (stereo not drawn) .
OUTPUT: no (0)

INPUT: State the result this test recorded for CN1c2ccc(F)cc2C(=O)N2CCc3c([nH]c4ccc(OCCCCCC(=O)NO)cc34)C21 (stereo not drawn) .
OUTPUT: no (0)

---

target: DNA topoisomerase 2-alpha (Homo sapiens) (UniProt P11388); test: Inhibition of recombinant Top2 (unknown origin) assessed as inhibition of relaxation of supercoiled pBR322 plasmid DNA at 50 uM incubated for 15 mins by ethidium bromide staining based agarose gel electrophoresis analysis
Sequence (P11388 whole entry): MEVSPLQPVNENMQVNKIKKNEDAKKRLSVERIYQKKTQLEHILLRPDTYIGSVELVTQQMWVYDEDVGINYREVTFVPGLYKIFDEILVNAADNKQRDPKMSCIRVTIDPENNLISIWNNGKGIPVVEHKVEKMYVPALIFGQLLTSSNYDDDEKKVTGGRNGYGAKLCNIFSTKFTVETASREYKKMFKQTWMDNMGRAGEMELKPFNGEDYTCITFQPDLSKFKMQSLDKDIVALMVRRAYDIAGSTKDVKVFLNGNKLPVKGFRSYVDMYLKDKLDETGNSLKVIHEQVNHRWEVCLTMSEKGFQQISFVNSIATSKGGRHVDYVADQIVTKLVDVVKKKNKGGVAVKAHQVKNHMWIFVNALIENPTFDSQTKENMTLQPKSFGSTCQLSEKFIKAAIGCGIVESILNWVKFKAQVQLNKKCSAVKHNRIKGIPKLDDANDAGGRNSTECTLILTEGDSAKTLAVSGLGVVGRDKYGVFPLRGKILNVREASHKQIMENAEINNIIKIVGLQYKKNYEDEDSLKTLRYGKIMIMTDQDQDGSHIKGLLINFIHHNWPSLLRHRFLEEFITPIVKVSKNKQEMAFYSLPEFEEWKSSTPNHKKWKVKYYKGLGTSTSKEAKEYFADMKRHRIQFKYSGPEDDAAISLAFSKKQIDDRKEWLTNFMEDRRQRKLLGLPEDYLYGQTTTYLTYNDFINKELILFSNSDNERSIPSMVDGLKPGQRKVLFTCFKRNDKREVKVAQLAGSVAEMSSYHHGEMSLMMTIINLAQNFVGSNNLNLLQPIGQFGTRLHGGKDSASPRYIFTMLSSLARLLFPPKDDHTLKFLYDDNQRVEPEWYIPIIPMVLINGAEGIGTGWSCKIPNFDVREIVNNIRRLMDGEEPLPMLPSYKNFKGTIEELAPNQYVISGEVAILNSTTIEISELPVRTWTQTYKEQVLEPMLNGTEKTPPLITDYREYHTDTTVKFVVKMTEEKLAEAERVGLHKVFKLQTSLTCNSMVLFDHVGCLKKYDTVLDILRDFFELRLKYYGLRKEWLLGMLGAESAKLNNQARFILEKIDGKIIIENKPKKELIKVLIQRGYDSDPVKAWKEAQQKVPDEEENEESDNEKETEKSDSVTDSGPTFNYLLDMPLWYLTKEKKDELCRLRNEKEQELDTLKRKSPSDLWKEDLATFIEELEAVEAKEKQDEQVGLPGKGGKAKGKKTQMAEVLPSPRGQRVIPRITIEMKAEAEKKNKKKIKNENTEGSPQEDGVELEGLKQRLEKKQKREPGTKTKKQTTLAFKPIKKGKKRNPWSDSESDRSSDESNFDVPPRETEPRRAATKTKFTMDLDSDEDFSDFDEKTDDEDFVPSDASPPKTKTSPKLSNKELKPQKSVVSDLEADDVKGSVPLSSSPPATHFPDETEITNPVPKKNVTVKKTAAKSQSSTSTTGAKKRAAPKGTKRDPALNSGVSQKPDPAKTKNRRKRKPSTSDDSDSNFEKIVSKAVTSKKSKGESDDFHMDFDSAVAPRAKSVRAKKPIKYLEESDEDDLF
Calls of active or inactive are those of the source. The rule behind the calls is not given here.
Endpoint label: inhibition

{"Molecule": "CN1c2ccc(F)cc2C(=O)N2CCc3c([nH]c4ccc(OCc5ccccc5C(=O)NO)cc34)C21 (stereo unspecified)", "inhibition": "Active"}
{"Molecule": "CN1c2ccc(F)cc2C(=O)N2CCc3c([nH]c4ccc(OCCCCCCC(=O)NO)cc34)C21 (stereo unspecified)", "inhibition": "Active"}
{"Molecule": "CN1c2ccc(F)cc2C(=O)N2CCc3c([nH]c4ccc(OCCCCC(=O)NO)cc34)C21 (stereo unspecified)", "inhibition": "Active"}
{"Molecule": "CN1c2ccc(F)cc2C(=O)N2CCc3c([nH]c4ccc(OCCCC(=O)NO)cc34)C21 (stereo unspecified)", "inhibition": "Active"}

Fill in: DNA topoisomerase 2-alpha (Homo sapiens) (UniProt P11388) inhibition for CN1c2ccc(F)cc2C(=O)N2CCc3c([nH]c4ccc(OCc5ccc(/C=C/C(=O)Nc6ccccc6N)cc5)cc34)C21 (stereo unspecified) = Active

Fill in: DNA topoisomerase 2-alpha (Homo sapiens) (UniProt P11388) inhibition for CN1c2ccc(F)cc2C(=O)N2CCc3c([nH]c4ccc(OCc5cccc(C(=O)NO)c5)cc34)C21 (stereo unspecified) = Active

Fill in: DNA topoisomerase 2-alpha (Homo sapiens) (UniProt P11388) inhibition for CN1c2ccc(F)cc2C(=O)N2CCc3c([nH]c4ccc(OCCCCCCC(=O)Nc5ccccc5N)cc34)C21 (stereo unspecified) = Active

Fill in: DNA topoisomerase 2-alpha (Homo sapiens) (UniProt P11388) inhibition for CN1c2ccc(F)cc2C(=O)N2CCc3c([nH]c4ccc(OCc5ccc(CC(=O)NO)cc5)cc34)C21 (stereo unspecified) = Active

Fill in: DNA topoisomerase 2-alpha (Homo sapiens) (UniProt P11388) inhibition for CN1c2ccc(F)cc2C(=O)N2CCc3c([nH]c4ccc(OCc5ccc(C(=O)NO)cc5)cc34)C21 (stereo unspecified) = Active

Fill in: DNA topoisomerase 2-alpha (Homo sapiens) (UniProt P11388) inhibition for CN1c2ccc(F)cc2C(=O)N2CCc3c([nH]c4ccc(OCCCCCC(=O)NO)cc34)C21 (stereo unspecified) = Active

Fill in: DNA topoisomerase 2-alpha (Homo sapiens) (UniProt P11388) inhibition for CN1c2ccc(F)cc2C(=O)N2CCc3c([nH]c4ccc(OCc5ccc(/C=C/C(=O)NO)cc5)cc34)C21 (stereo unspecified) = Active

---

# IC50 annotations
test system: MCF7; assay: Antiproliferative activity against human MCF7 cells assessed as cell growth inhibition incubated for 8 hrs by CCK8 assay; type: functional, cell-based; details: MCF7, 8 h
Give just the numeric value; nM need not be written.

{"Molecule": "CN1c2ccc(F)cc2C(=O)N2CCc3c([nH]c4ccc(OCCCCCC(=O)NO)cc34)C21 (stereo not drawn)", "IC50 [nM]": 150}
{"Molecule": "CN1c2ccc(F)cc2C(=O)N2CCc3c([nH]c4ccc(OCCCCC(=O)Nc5ccccc5N)cc34)C21 (stereo not drawn)", "IC50 [nM]": 1260}

Next molecule, IC50 to be filled in.
// IC50 lookup, molecule = CN1c2ccc(F)cc2C(=O)N2CCc3c([nH]c4ccc(OCCCC(=O)NO)cc34)C21 (stereo not drawn) , result: 1230

---

# IC50 annotations
tested on: K562; assay: Antiproliferative activity against human K562 cells assessed as cell growth inhibition incubated for 8 hrs by CCK8 assay; assay type: functional, cell-based; settings: K562, 8 h
Give just the numeric value; nM need not be written.

{"Molecule": "CN1c2ccc(F)cc2C(=O)N2CCc3c([nH]c4ccc(OCCCCCC(=O)Nc5ccccc5N)cc34)C21 (stereo not drawn)", "Target under test": "K562", "Uom": "nM", "IC50": 1200}

Fill in: K562 IC50 for CN1c2ccc(F)cc2C(=O)N2CCc3c([nH]c4ccc(OCCCC(=O)Nc5ccccc5N)cc34)C21 (stereo not drawn) = 280

Fill in: K562 IC50 for CN1c2ccc(F)cc2C(=O)N2CCc3c([nH]c4ccc(OCc5ccc(CC(=O)NO)cc5)cc34)C21 (stereo not drawn) = 180

Fill in: K562 IC50 for CN1c2ccc(F)cc2C(=O)N2CCc3c([nH]c4ccc(OCCCCCC(=O)NO)cc34)C21 (stereo not drawn) = 670

Fill in: K562 IC50 for CN1c2ccc(F)cc2C(=O)N2CCc3c([nH]c4ccc(OCc5ccc(C(=O)Nc6ccccc6N)cc5)cc34)C21 (stereo not drawn) = 250

Fill in: K562 IC50 for `CC[C@@]1(O)C(=O)OCc2c1cc1n(c2=O)Cc2cc3c(CN(C)C)c(O)ccc3nc2-1` = 910

---

tested on: HEL; test: Antiproliferative activity against HEL cells assessed as cell growth inhibition incubated for 8 hrs by CCK8 assay; type: functional, cell-based; settings: Homo sapiens
Endpoint label: pIC50
// pIC50: -log10(molar conc.)

These recorded examples may help you get a feel for the data.
{"Compound": "CN1c2ccc(F)cc2C(=O)N2CCc3c([nH]c4ccc(OCCCCCCC(=O)Nc5ccccc5N)cc34)C21 (stereo not drawn)", "pIC50": 5.73}
{"Compound": "CN1c2ccc(F)cc2C(=O)N2CCc3c([nH]c4ccc(OCc5ccc(C(=O)Nc6ccccc6N)cc5)cc34)C21 (stereo not drawn)", "pIC50": 7.36}

// pIC50 lookup, compound = CN1c2ccc(F)cc2C(=O)N2CCc3c([nH]c4ccc(OCc5cccc(C(=O)Nc6ccccc6N)c5)cc34)C21 (stereo not drawn) , result: 6.18

---

test system: HCT-116; test: Antiproliferative activity against human HCT-116 cells assessed as cell growth inhibition incubated for 8 hrs by CCK8 assay; format: functional, cell-based; conditions: HCT-116, 8 h
pIC50: −log10 of the molar value.
Endpoint label: pIC50

These recorded examples may help you get a feel for the data.
{"Molecule": "CN1c2ccc(F)cc2C(=O)N2CCc3c([nH]c4ccc(OCCCCCCCC(=O)NO)cc34)C21 (stereo not drawn)", "Endpoint label": "pIC50", "Recorded value": "< 5.70"}
{"Molecule": "CN1c2ccc(F)cc2C(=O)N2CCc3c([nH]c4ccc(OCCCCCCC(=O)Nc5ccccc5N)cc34)C21 (stereo not drawn)", "Endpoint label": "pIC50", "Recorded value": "< 5.70"}

// pIC50 lookup, molecule = CN1c2ccc(F)cc2C(=O)N2CCc3c([nH]c4ccc(OCc5ccc(CC(=O)NO)cc5)cc34)C21 (stereo not drawn) , result: < 5.70
